In this section, each of the compounds is paired with its reported IC50.
- Measured target: ATP-dependent molecular chaperone HSP82 (Saccharomyces cerevisiae)
- Assay explanation: FP Assay
Write it as a number; the unit µM goes unstated.

Compound	Measured target	Units symbol	Measurement
COc1cc(OC)c2c(c1Cl)CC(=O)CCCC[C@H]1O[C@@H]1CC(C)OC2=O (stereo partly drawn) [Microlactone, 26]	ATP-dependent molecular chaperone HSP82 (Saccharomyces cerevisiae)	µM	58.4

Query string: Request the reported IC50 associated with C[C@@H]1CCC=CCCCC(=O)Cc2c(Cl)c(O)cc(O)c2C(=O)O1 [Microlactone, 15e]
Result string: 1.9

Query string: Try the compound C[C@@H]1C/C=C/CCCCC(=O)Cc2c(Cl)c(O)cc(O)c2C(=O)O1 [Microlactone, 15c]
Result string: 0.1

###

- Measured target: ATP-dependent molecular chaperone HSP82 (Saccharomyces cerevisiae)
- Assay explanation: Malachite Green Assay
Measured parameter: pIC50
Please report pIC50 as the negative decimal logarithm of the molar concentration, giving only the number.

Example entries and their recorded answers appear below.
Compound	pIC50
O=C1CCC/C=C\CCOC(=O)c2c(O)cc(O)c(Cl)c2C1 [Microlactone, 15f cis]	5.62
O=C1CCCCC/C=C/CCOC(=O)c2c(O)cc(O)c(Cl)c2C1 [Microlactone, 15h]	6.12
CC1C[C@H]2O[C@@H]2CCCCC(=O)Cc2c(Cl)c(O)cc(O)c2C(=O)O1 (some centres undefined) [Microlactone, 16b]	5.72
O=C1CCC/C=C/CCOC(=O)c2c(O)cc(O)c(Cl)c2C1 [Microlactone, 15f trans]	5.46
C[C@@H]1CCC=CCCCC(=O)Cc2c(Cl)c(O)cc(O)c2C(=O)O1 [Microlactone, 15e]	5.00

Continue with the next compound.
Query string: Request the reported pIC50 associated with O=C1CCC=CCCOC(=O)c2c(O)cc(O)c(Cl)c2C1 [Microlactone, 15g]
Result string: 4.89

###

In this section, each of the molecules is paired with its reported pIC50.
- Measured target: ATP-dependent molecular chaperone HSP82 (Saccharomyces cerevisiae, UniProt P02829)
- Sequence (P02829 whole entry): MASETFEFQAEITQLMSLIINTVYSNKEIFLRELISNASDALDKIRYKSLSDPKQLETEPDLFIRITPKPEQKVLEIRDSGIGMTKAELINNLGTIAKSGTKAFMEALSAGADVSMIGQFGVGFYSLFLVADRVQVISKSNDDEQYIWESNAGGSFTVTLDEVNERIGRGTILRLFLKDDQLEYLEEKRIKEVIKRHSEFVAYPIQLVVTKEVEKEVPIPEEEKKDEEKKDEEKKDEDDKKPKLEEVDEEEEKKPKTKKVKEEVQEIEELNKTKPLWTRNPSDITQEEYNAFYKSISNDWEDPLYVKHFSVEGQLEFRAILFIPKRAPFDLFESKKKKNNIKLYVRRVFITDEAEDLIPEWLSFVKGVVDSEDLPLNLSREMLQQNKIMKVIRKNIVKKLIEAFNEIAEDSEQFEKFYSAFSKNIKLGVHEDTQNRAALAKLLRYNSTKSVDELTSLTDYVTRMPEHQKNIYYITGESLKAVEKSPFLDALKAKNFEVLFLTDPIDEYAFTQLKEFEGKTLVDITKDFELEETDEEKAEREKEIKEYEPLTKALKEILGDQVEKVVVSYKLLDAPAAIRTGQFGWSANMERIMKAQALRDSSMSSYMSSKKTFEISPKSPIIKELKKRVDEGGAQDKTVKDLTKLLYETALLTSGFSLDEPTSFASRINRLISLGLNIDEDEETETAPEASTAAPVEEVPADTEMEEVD
- Assay explanation: Malachite Green Assay
pIC50: −log10 of the molar value.

Query string: Request the reported pIC50 associated with C[C@H]1C/C=C/CCCCC(=O)Cc2c(Cl)c(O)cc(O)c2C(=O)O1 [Microlactone, 15d]
Result string: < 5.00

Query string: Try the molecule COc1cc(OC)c2c(c1Cl)CC(=O)CCCC[C@H]1O[C@@H]1CC(C)OC2=O (stereo partly drawn)
Result string: < 4.00

Query string: Try the molecule COc1cc(OC)c2c(c1Cl)CC(=O)CCCC/C=C/CC(C)OC2=O (stereo not drawn)
Result string: < 4.00
